B1: Neutrophil cytosol factor 2, residues 456 to 514; numbered along this chain, P19878 (parent)
chain: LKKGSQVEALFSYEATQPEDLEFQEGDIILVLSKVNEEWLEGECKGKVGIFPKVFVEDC

variants of: B1; experiment: abundance fitness (aPCA) (normalised: wild type 0, dead -1); higher = more abundant; growth selection in yeast, the domain comes from the species named; details: Homo sapiens
Classes are defined on abundance fitness with ranges Low = under -0.7, Medium = from -0.7 up to -0.5, High = -0.5 and over

Example entries begin here.
VARIANT DESIGNATION | DISCRETE LABEL
G26I | Low
K53H | Low
D20S | Medium
I29W | High
L40E | Low
E57G | High
S12Y | Low
E37T | High

Request: Looking at P52V , which class would you pick?
Result: Medium

Request: Looking at D20V , which class would you pick?
Result: Medium
